All figures here come from the supplement of paper PMC7724964.

- TESTED_SYSTEM: VASP 1-114 WH1 (domain begin residue: 1, domain end residue: 114), P50552
- Sequence (P50552 whole entry): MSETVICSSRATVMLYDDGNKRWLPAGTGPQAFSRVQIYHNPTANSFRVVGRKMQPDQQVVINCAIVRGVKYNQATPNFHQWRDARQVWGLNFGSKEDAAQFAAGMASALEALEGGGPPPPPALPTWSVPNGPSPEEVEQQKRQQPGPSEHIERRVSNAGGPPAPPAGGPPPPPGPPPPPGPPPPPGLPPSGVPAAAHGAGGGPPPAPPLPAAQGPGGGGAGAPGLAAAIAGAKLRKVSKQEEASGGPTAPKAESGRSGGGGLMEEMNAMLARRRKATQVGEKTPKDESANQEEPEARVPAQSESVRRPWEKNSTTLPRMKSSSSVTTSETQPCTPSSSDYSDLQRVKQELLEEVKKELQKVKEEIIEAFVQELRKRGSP
- MEASUREMENT_PROTOCOL: phage ELISA signal ratio (GST-PRM binding over GST background); higher = stronger binding of peptide-phage to the PRM
MEASURED_PROPERTY: phage ELISA signal ratio

Solved cases below.
- BINDER: "WPPAPPTEQHRQMWAK"
  RESULT_VALUE: 7.1
- BINDER: "IQDWPELPEVMMHWTL"
  RESULT_VALUE: 9.17
- BINDER: "NWDIWPDWPPTQSVMW"
  RESULT_VALUE: 5.89

Now consider the entry below.
*Q* Form field: reported phage ELISA signal ratio of PAWPPWPAEAVWEATK
*A* 12.3
